Measured values drawn from PubChem BioAssay AID1347165 for this set.

- system: Lysine-specific demethylase 5B (Homo sapiens) (UniProt Q9UGL1)
- Sequence (Q9UGL1 whole entry, looked up): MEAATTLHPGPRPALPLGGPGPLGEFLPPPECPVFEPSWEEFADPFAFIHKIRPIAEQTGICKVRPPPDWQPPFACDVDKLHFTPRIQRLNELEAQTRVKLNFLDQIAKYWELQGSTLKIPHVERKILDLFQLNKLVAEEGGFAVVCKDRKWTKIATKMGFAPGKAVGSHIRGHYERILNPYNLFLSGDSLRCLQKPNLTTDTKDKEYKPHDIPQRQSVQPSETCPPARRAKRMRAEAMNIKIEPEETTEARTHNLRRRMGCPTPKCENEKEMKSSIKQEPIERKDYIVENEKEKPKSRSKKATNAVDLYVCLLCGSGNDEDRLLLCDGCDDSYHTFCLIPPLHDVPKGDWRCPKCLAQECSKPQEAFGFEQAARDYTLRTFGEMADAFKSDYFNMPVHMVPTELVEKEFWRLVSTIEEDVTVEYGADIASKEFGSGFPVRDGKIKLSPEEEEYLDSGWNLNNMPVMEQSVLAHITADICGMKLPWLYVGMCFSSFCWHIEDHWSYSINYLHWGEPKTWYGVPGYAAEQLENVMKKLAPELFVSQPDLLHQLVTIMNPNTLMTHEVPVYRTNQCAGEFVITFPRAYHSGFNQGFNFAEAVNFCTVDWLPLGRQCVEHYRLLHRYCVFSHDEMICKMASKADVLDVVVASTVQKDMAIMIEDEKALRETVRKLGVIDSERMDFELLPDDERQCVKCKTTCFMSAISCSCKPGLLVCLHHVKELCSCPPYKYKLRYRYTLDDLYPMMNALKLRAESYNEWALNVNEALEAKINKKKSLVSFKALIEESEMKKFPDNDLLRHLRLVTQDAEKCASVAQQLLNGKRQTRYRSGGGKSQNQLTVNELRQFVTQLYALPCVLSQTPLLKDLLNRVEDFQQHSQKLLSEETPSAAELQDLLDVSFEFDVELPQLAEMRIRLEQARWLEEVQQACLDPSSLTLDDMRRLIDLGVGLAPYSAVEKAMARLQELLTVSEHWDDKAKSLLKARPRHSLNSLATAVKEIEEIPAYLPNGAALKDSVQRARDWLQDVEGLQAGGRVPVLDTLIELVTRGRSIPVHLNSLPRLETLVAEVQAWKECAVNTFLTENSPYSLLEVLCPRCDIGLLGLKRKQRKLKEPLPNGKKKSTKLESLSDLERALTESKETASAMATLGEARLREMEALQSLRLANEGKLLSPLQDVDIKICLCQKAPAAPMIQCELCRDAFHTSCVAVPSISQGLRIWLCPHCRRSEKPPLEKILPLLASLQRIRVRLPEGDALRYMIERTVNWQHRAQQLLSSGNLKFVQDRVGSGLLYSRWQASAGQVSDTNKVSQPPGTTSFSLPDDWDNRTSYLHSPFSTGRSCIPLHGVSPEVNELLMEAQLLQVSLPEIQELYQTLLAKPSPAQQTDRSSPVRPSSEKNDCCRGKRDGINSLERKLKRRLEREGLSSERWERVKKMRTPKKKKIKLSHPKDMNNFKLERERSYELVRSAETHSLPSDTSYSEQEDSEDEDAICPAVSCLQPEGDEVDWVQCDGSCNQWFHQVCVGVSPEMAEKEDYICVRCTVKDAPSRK
- assaySummary: Primary screen for KDM5B Histone Demethylases FDH-coupled qHTS; note: nearly all actives have a fitted effect of over 70% in size
- conditionSummary: FDH-coupled NADH fluorescence; series mostly up to 57.7 µM
Among all 220,000 compounds or so, about 5,700 (2.6%) were called active. Not shown: some 18% with an inconclusive outcome. Calls come from the whole dose curve; as a rule, active = well fitted inhibition curve with a large enough effect; inconclusive = small, poorly fitted or top-dose-only effect; inactive = no such curve, though single readings can be large or run the other way. The sample holds actives, similar compounds and a random draw of the others, so the mix is not that of the screen.
Result category, one only: active, inactive

smilesCode: O=C(Cc1ccc(Cl)cc1)NCc1nnc2ccc(-c3ccc(F)cc3)nn12
categoryLabel: active
//
smilesCode: CCOC(=O)COn1c(=O)c(-c2ccc(OCC)cc2)[n+]([O-])c2ccccc21
categoryLabel: inactive
//
smilesCode: Oc1c(C=Nc2ccc(F)c(Cl)c2)ccc2ccccc12
categoryLabel: inactive
//
smilesCode: COc1cc(NC(=O)CSc2nnc3ccc(-c4ccncc4)nn23)cc(OC)c1
categoryLabel: inactive

Kindly review the next molecule as well.
Write down the call the test reported for this molecule. Item: COc1ccc(CNc2nc(-c3ccc(Cl)cc3)nn2S(=O)(=O)c2ccc(C)cc2)cc1
inactive

---

- system: Lysine-specific demethylase 5B (Homo sapiens) (UniProt Q9UGL1)
- assaySummary: Primary screen for KDM5B Histone Demethylases FDH-coupled qHTS; note: nearly all actives have a fitted effect of over 70% in size
- conditionSummary: FDH-coupled NADH fluorescence; series mostly up to 57.7 µM
- Source text: Assay Submitter (PI): Qin Yan, Ph.D. (Yale University) and Xiaodong Cheng, Ph.D. (MD Anderson) This project was funded as part of the NCI NEXT Program and Chemical Biology Consortium (CBC) The histone demethylases, KDM5A and KDM5B catalyze the demethylation of lysine 4 on histone H3 (H3K4me3/2). They are overexpressed in a variety of cancers and have been implicated in cancer cell growth, metastasis, drug resistance, and tumor growth. […]
The whole screen tested about 220,000 compounds, of which about 5,700 (2.6%) were called active. About 18% were inconclusive and are not listed. Calls follow the shape of the dose curve; as a rule, active = well fitted inhibition curve with a large enough effect; inconclusive = small, poorly fitted or top-dose-only effect; inactive = no such curve, though single readings can be large or run the other way. The full list was thinned out, with actives kept by preference.
Returns: one label drawn from 1 (active), -1 (inactive)

Example entries and their recorded answers appear below.
compound: O=C(NCCc1ccc(Cl)cc1)c1ccc2nccn2c1
categoryLabel: 1
//
compound: N#CCCNC(=O)CSc1nc(C2CC2)nc2ccccc12
categoryLabel: -1
//
compound: C=CCn1c(COc2cc(C)c(Cl)c(C)c2)n[nH]c1=S
categoryLabel: -1
//
compound: O=C(NC1CCN(Cc2ccc(F)c(F)c2)CC1)c1ccc2nccn2c1
categoryLabel: 1
//
compound: COC(=O)c1ccc(COc2c(Cl)cccc2Cl)cc1
categoryLabel: -1

Which outcome did this test record for the compound Cc1cc(C(=O)NCCc2ccc(Cl)cc2)c(C)o1 ?
-1

Please state the recorded outcome for this compound: COc1cccc(S(=O)(=O)NCc2ccc(C(=O)NCc3ccccn3)cc2)c1
-1

Fill in: this test's call for c1ccc(-c2noc(-c3ccccc3OC3CCNC3)n2)cc1 (configuration not stated) is ___
1

// outcome(item) with item = CCn1cc(-c2ccccc2)cc1C(=O)NCc1ccccn1
-1

---

- system: Lysine-specific demethylase 5B (Homo sapiens) (UniProt Q9UGL1)
- assaySummary: Primary screen for KDM5B Histone Demethylases FDH-coupled qHTS; note: nearly all actives have a fitted effect of over 70% in size
- conditionSummary: FDH-coupled NADH fluorescence; series mostly up to 57.7 µM
The whole screen tested about 220,000 compounds, of which about 5,700 (2.6%) were called active. Not shown: some 18% with an inconclusive outcome. Calls follow the shape of the dose curve; as a rule, active = well fitted inhibition curve with a large enough effect; inconclusive = small, poorly fitted or top-dose-only effect; inactive = no such curve, though single readings can be large or run the other way. Many of the other results were omitted from the sample, so actives are more common in it than they were.
Permitted responses: active, inactive

Sample answers from the record:
molecule: COc1ccc(OC2CN(CC3CCCCC3)C2)cc1
categoryLabel: inactive
//
molecule: COc1ccc(CN2CC(Oc3ccc(OC)cc3)C2)cc1
categoryLabel: inactive
//
molecule: CC/C(=N\NC(=O)c1ccc(C(C)(C)C)cc1)c1ccccc1
categoryLabel: inactive
//
molecule: CCc1ccc(OCC(=O)Nc2ccc(S(=O)(=O)NC(C)(C)C)cc2)cc1
categoryLabel: inactive

Note: attention shifts to another entry.
Recorded test call requested for CN(C(=O)CCc1c[nH]c2ccccc12)C1CCCC1
inactive

---

- system: Lysine-specific demethylase 5B (Homo sapiens)
- assaySummary: Primary screen for KDM5B Histone Demethylases FDH-coupled qHTS; note: nearly all actives have a fitted effect of over 70% in size; note: potency is the fitted concentration of half-maximal effect
- conditionSummary: FDH-coupled NADH fluorescence; series mostly up to 57.7 µM
Hit rate of the full screen: of about 220,000 compounds, about 5,700 (2.6%) were called active. Not shown: some 18% with an inconclusive outcome. The full list was thinned out, with actives kept by preference.
readoutName: Potency

compound: O=[S+]([O-])(Nc1ccccc1)c1ccc2c(c1)OCCN(Cc1cccs1)C2
readoutName: Potency
measurement: inactive

compound: COCCC(=O)NCC1Cn2cccc2C(=O)N1Cc1ccccc1 (stereo unspecified)
readoutName: Potency
measurement: inactive

compound: COCCN1C(=O)c2cccn2CC1CNC(=O)c1cc2ccccc2[nH]1 (stereo unspecified)
readoutName: Potency
measurement: 28.2 µM (active)

compound: CCc1ccc(CN(C(=O)c2cc(=O)c3cc(C)cc(C)c3o2)C2CCS(=O)(=O)C2)cc1 (stereo unspecified)
readoutName: Potency
measurement: inactive

compound: NCc1ccccc1-c1cccc(C(F)(F)F)c1
readoutName: Potency
measurement: inactive

// next entry
Dear colleague, please send me the reported Potency for COCCN1C(=O)c2cccn2CC1CNC(=O)c1ccccc1F (stereo unspecified) when you can.
inactive

---

- system: Lysine-specific demethylase 5B (Homo sapiens) (UniProt Q9UGL1)
- assaySummary: Primary screen for KDM5B Histone Demethylases FDH-coupled qHTS; note: nearly all actives have a fitted effect of over 70% in size
- conditionSummary: FDH-coupled NADH fluorescence; series mostly up to 57.7 µM
The campaign covered roughly 220,000 compounds. About 5,700 (2.6%) were called active. Inconclusive results (about 18%) are left out. The call rests on the fitted dose curve; in most records, active means well fitted inhibition curve with a large enough effect; inconclusive means small, poorly fitted or top-dose-only effect; inactive means no such curve, though single readings can be large or run the other way. For the sample, actives were picked, then their nearest neighbours and some compounds at random.
API: response.call in 1 (active), -1 (inactive)

compound: Cc1cccc(-c2cnc3n[nH]c(-c4ccc5c(c4)OCO5)c3n2)c1
system: Lysine-specific demethylase 5B (Homo sapiens) (UniProt Q9UGL1)
categoryLabel: -1
--
compound: C[S+](=O)([O-])c1ccc(-c2cnc3n[nH]c(-c4ccccc4)c3n2)cc1
system: Lysine-specific demethylase 5B (Homo sapiens) (UniProt Q9UGL1)
categoryLabel: 1
--
compound: NC(=O)c1ccc(CN(Cc2cccs2)C2CC2)cc1
system: Lysine-specific demethylase 5B (Homo sapiens) (UniProt Q9UGL1)
categoryLabel: -1
--
compound: N#CCc1ccc(OCC(O)Cn2cnc3ccc(Cl)cc3c2=O)cc1 (configuration not stated)
system: Lysine-specific demethylase 5B (Homo sapiens) (UniProt Q9UGL1)
categoryLabel: -1
--
compound: C=CCN(CC=C)S(=O)(=O)c1cccc2nsnc12
system: Lysine-specific demethylase 5B (Homo sapiens) (UniProt Q9UGL1)
categoryLabel: -1

Fill in: this test's call for Fc1ccc(-c2cnc3n[nH]c(-c4ccc5c(c4)OCO5)c3n2)cc1 is ___
-1

# lookup: test call for Cc1ccsc1-c1[nH]nc2ncc(-c3ccccc3O)nc12
-1

---

- system: Lysine-specific demethylase 5B (Homo sapiens)
- assaySummary: Primary screen for KDM5B Histone Demethylases FDH-coupled qHTS; note: nearly all actives have a fitted effect of over 70% in size
- conditionSummary: FDH-coupled NADH fluorescence; series mostly up to 57.7 µM
In all, about 220,000 compounds went through this assay and about 5,700 (2.6%) were called active. About 18% were inconclusive and are not listed. Calls follow the shape of the dose curve; as a rule, active = well fitted inhibition curve with a large enough effect; inconclusive = small, poorly fitted or top-dose-only effect; inactive = no such curve, though single readings can be large or run the other way. The list comes from a sample in which actives are over-represented; it also holds close analogues and randomly drawn compounds.
Pick one: true for active, false for inactive

These recorded examples may help you get a feel for the data.
smilesCode: CN(C)C[C@@H]1CN(c2ccncn2)C[C@H]1NC(=O)c1cc(C2CC2)[nH]n1
categoryLabel: false

smilesCode: CN(C)C[C@@H]1CN(c2ncccn2)C[C@H]1NC(=O)Cc1ccccc1Cl
categoryLabel: true

smilesCode: Cc1ccc(C)n1-c1nnc(N2CCC(C(=O)NCc3ccccc3Cl)CC2)s1
categoryLabel: false

// switching to the query compound
Could you please tell me the result logged for CCc1ccc(C(=O)Nc2ccccc2O)o1 in this assay?
false

---

- system: Lysine-specific demethylase 5B (Homo sapiens) (UniProt Q9UGL1)
- assaySummary: Primary screen for KDM5B Histone Demethylases FDH-coupled qHTS; note: nearly all actives have a fitted effect of over 70% in size; note: potency is the fitted concentration of half-maximal effect
- conditionSummary: FDH-coupled NADH fluorescence (FDH is formaldehyde dehydrogenase); series mostly up to 57.7 µM
About 5,700 (2.6%) of roughly 220,000 compounds were called active. Another 18% or so got no clear call; they are omitted. Shown is part of a subset that was picked to be rich in actives.
readoutName: Potency

compound: Cc1ccc(C)n1-c1c(C(=O)NCCN2CCOCC2)sc2ncccc12
readoutName: Potency
measurement: inactive
//
compound: COc1ccc(OC)c(C2C3=C(CC(C)(C)CC3=O)Nc3nc(-c4cccc(C)c4)nn32)c1 (stereo unspecified)
readoutName: Potency
measurement: inactive
//
compound: Cc1ccc(Nc2n[nH]nc2C(=O)Nc2ccc(C)cc2Cl)cc1
readoutName: Potency
measurement: inactive
//
compound: COC(=O)[C@@H]1Cc2c([nH]c3ccccc23)[C@H]2C[C@H](NCCNC(C)=O)C[C@@H](c3ccc(C)cc3)N21
readoutName: Potency
measurement: 17.8 µM (active)
//
compound: CN(C)c1ccc(C(=O)/C=C/c2ccncc2)cc1
readoutName: Potency
measurement: inactive

For the compound COCCSCC(=O)N1CCOC(C)(C)C1 , give its reported Potency.
inactive

Hello, please tell me recorded Potency for this one: CC1CCCN(CC(=O)Nc2cc(Cl)ccc2Oc2ccccc2)C1 (stereo unspecified)
inactive

// Input: COc1nc2nc(CCc3ccccc3)n(C)c2cc1-c1cncnc1 . Output its Potency only.
inactive

Identify Potency associated with the compound Cn1cc(C(=O)N2CCN(C(=O)Cc3ccccc3)CC2)c2ccccc21
inactive

Read off the recorded Potency for O=C([C@@H]1C[C@H](c2ccc(F)cc2)N([S+](=O)([O-])C2CC2)C1)N1CCN(c2ccccn2)CC1
20 µM (active)

For the compound COc1nc2nc(CC3CC3)n(C)c2cc1-c1cccc(NC(C)=O)c1 , give its measured Potency value.
35.5 µM (active)

Please look at this compound and report its Potency: O=C(Nc1cccnc1)[C@@H]1C[C@@H](c2ccc(F)cc2)N([S+](=O)([O-])c2ccccc2)C1
inactive

Annotate the compound CC(Oc1ccc(Cl)cc1)c1nc(-c2ccc(Cl)cc2)no1 (stereo unspecified) with its measured Potency.
inactive
